Entries and their HDAC2 activity raw data (signal)
molecular target: HDAC2 (Homo sapiens, UniProt Q92769); construct: purchased Reaction Biology Corporation (assay run by the CRO); assay: HDAC2 inhibition, full IC50 measurement (Reaction Biology; fluorogenic p53 peptide RHKK(Ac)AMC); assay type: biochemical; conditions: Conc. 1.52E-09 M, t1
Sequence (Q92769 whole entry): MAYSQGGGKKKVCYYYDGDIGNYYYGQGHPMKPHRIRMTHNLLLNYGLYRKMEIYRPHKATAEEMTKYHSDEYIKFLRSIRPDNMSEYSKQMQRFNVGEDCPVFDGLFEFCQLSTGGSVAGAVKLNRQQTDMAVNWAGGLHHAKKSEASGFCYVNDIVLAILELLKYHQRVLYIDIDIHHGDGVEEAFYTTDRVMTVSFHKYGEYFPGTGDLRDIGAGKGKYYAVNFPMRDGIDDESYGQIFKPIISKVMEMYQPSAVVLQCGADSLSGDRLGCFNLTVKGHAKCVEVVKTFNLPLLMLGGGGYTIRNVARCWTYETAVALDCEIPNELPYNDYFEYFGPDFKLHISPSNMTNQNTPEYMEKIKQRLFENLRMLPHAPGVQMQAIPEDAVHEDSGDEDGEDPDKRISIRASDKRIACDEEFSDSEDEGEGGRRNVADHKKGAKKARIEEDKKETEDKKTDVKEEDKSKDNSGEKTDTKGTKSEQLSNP
Peptide text beside a SMILES is read from it.
API doc: respond with a numeric literal and nothing else, no unit.

// below: answered compounds
[
  {
    "compound": "N=C(N)NCCC[C@H]1NC(=O)[C@@H]2CCCN2C(=O)[C@H](CO)NC(=O)[C@@H](Cc2c[nH]cn2)NC(=O)[C@H](CCCCCS)NC(=O)[C@H](CCCCN)NC(=O)[C@H](Cc2ccc(O)cc2)NC(=O)[C@H]2CCCN2C(=O)[C@@H](CCC(N)=O)NC1=O [des3.1.0, SHA-dHis-Ser-Pro-dArg-dGln-dPro-Tyr-Lys] (HELM PEPTIDE1{K.[O=C([C@H](CCCCCS)N[*:1])[*:2]].[dH].S.P.[dR].[dQ].[dP].Y}$PEPTIDE1,PEPTIDE1,1:R1-9:R2$$$V2.0)",
    "target desc": "HDAC2 (Homo sapiens, UniProt Q92769)",
    "reported value": 589537
  },
  {
    "compound": "N=C(N)NCCC[C@@H]1NC(=O)[C@H](Cc2c[nH]c3ccccc23)NC(=O)[C@H](CC(=O)O)NC(=O)[C@@H](CO)NC(=O)[C@H](Cc2c[nH]c3ccccc23)NC(=O)[C@H](CCCCCS)NC(=O)[C@H](CCC(N)=O)NC1=O [des4.1.0, SHA-Trp-dSer-Asp-Trp-Arg-Gln] (HELM PEPTIDE1{D.W.R.Q.[O=C([C@H](CCCCCS)N[*:1])[*:2]].W.[dS]}$PEPTIDE1,PEPTIDE1,1:R1-7:R2$$$V2.0)",
    "target desc": "HDAC2 (Homo sapiens, UniProt Q92769)",
    "reported value": 1955635
  }
]

Qu. What does the record list as HDAC2 activity raw data (signal) for C[C@H](O)[C@H]1NC(=O)[C@H](Cc2c[nH]c3ccccc23)NC(=O)[C@H](CCCCCS)NC(=O)[C@H](CCCCN)NC(=O)[C@@H](CC(=O)O)NC(=O)[C@@H](CCCCN)NC(=O)[C@@H](CO)NC(=O)[C@H](CC(N)=O)NC(=O)[C@H](CC(=O)O)NC1=O [des2.1.0, SHA-Trp-dThr-Asp-Asn-dSer-dLys-dAsp-Lys] (HELM PEPTIDE1{D.N.[dS].[dK].[dD].K.[O=C([C@H](CCCCCS)N[*:1])[*:2]].W.[dT]}$PEPTIDE1,PEPTIDE1,1:R1-9:R2$$$V2.0) ?
Ans. 900838

Qu. What does the record list as HDAC2 activity raw data (signal) for CCCC[C@H]1NC(=O)[C@H](Cc2ccccc2)NC(=O)[C@H](CCCCCS)NC(=O)[C@@H](CCCNC(=N)N)NC(=O)[C@H](C)NC(=O)[C@@H](CO)NC(=O)[C@@H](C)NC(=O)[C@H](CCCCN)NC1=O [des4.3.1.3, SHA-Phe-dNle-Lys-dAla-dSer-Ala-dArg] (HELM PEPTIDE1{A.[dR].[O=C([C@H](CCCCCS)N[*:1])[*:2]].F.[CCCC[C@@H](N[*:1])C(=O)[*:2]].K.[dA].[dS]}$PEPTIDE1,PEPTIDE1,1:R1-8:R2$$$V2.0) ?
Ans. 1807312

Qu. What does the record list as HDAC2 activity raw data (signal) for CCCC[C@H]1NC(=O)[C@H](Cc2ccccc2)NC(=O)[C@H](CCCCCS)NC(=O)[C@@H](CCCNC(=N)N)NC(=O)[C@H](CC(=O)O)NC(=O)[C@@H](CO)NC(=O)[C@@H](C)NC(=O)[C@H](CCCCN)NC1=O [des4.3.1, SHA-Phe-dNle-Lys-dAla-dSer-Asp-dArg] (HELM PEPTIDE1{D.[dR].[O=C([C@H](CCCCCS)N[*:1])[*:2]].F.[CCCC[C@@H](N[*:1])C(=O)[*:2]].K.[dA].[dS]}$PEPTIDE1,PEPTIDE1,1:R1-8:R2$$$V2.0) ?
Ans. 1283576

Qu. What does the record list as HDAC2 activity raw data (signal) for CSCC[C@H]1NC(=O)[C@@H](CO)NC(=O)[C@H](CC(N)=O)NC(=O)[C@H](CC(=O)O)NC(=O)[C@@H]([C@H](C)O)NC(=O)[C@H](Cc2c[nH]c3ccccc23)NC(=O)[C@H](CCCCCS)NC(=O)[C@H](CCCCN)NC(=O)[C@@H](CC(=O)O)NC1=O [des2.1.1, SHA-Trp-dThr-Asp-Asn-dSer-dMet-dAsp-Lys] (HELM PEPTIDE1{D.N.[dS].[dM].[dD].K.[O=C([C@H](CCCCCS)N[*:1])[*:2]].W.[dT]}$PEPTIDE1,PEPTIDE1,1:R1-9:R2$$$V2.0) ?
Ans. 969892
